Numbers sourced from patent US20100240642A1.

target: hPPARγ receptor (Homo sapiens); construct: expressed in transfected cells; host or cells: CV-1 (African Green Monkey kidney, ATCC CCL-70); assay: PPARγ Cell-based luciferase assay; settings: CV-1 cells transfected with GAL4-hPPARγ LBD and UAStkLuc; at concentrations of 10^−6 M or less; read-out: agonism of the hPPARγ receptor (activation relative to full agonist rosiglitazone)
Sequence (P37231 200-503): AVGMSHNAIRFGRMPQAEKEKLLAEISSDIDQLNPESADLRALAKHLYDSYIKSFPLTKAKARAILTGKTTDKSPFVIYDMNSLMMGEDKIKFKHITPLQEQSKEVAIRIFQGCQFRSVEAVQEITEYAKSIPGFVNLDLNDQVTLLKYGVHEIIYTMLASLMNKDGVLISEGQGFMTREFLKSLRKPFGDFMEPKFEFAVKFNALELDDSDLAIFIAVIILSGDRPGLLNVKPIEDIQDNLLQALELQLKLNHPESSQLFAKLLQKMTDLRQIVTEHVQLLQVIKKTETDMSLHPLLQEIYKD
Collected Emax values appear next to each entry.

See these solved cases before continuing.
| Given Smiles | Emax |
| --- | --- |
| CC(C)(C)c1ccc(-c2c(C(=O)O)n(Cc3cc(O)cc(OCC4CC4)c3)c3ccccc23)cc1 | 20 to 80% |
| O=C(O)c1c(Cc2cccc(C(F)(F)F)c2)c2ccccc2n1Cc1cc(OCC2CC2)cc(OCC2CC2)c1 | 20 to 80% |
| CC(C)(C)c1ccc(-c2c(C(=O)O)n(Cc3cc(OCC4CC4)cc(OCC4CC4)c3)c3ccccc23)cc1 | 20 to 80% |
| CC(C)(C)c1ccc(-c2c(C(=O)O)n(Cc3cc(O)cc(-c4ccc(C(=O)O)cc4)c3)c3ccccc23)cc1 | 20 to 80% |
| CC(C)CCOc1cc(Cn2c(C(=O)O)c(-c3ccc(C(C)(C)C)cc3)c3ccccc32)cc(OCC2CC2)c1 | 20 to 80% |
| COc1ccc(-c2c(C(=O)O)n(Cc3cccc(-c4ccc(O)cc4)c3)c3ccccc23)cn1 | 20 to 80% |
| CC(C)(C)c1ccc(-c2c(C(=O)O)n(Cc3cc(OCC4CC4)cc(-c4ccc(C(=O)O)cc4)c3)c3ccccc23)cc1 | 20 to 80% |
| CC(C)(C)c1ccc(-c2c(C(=O)O)n(Cc3cc(C(F)(F)F)cc(C(F)(F)F)c3)c3ccccc23)cc1 | 20 to 80% |

The record that follows has no Emax shown yet.
Incoming: Quick one: Emax for "COc1ccc(-c2c(C(=O)O)n(Cc3cc(-c4ccc(C(=O)O)cc4)ccc3C)c3ccccc23)cn1" ?
Outgoing: 20 to 80%
